System: OVCAR-5 ovarian
PROCEDURE_DETAILS: NCI tumour cell line growth inhibition, 48 h
MEASUREMENT_TYPE: TGI (µM)
One number for each entry, in µM.

# annotated cases, reported TGI shown
Asked: Give recorded TGI with OVCAR-5 ovarian for the following compound: COC(=O)C1=C(OC)[C@H]2C#C/C=C\C#C[C@@H]3Nc4c(cc(O)c5c4C(=O)c4ccccc4C5=O)[C@]24O[C@@]34[C@H]1C
Given back: 0.0311

Asked: Find the measured TGI: item CCC1CC(O)c2c(O)c3c(c(O)c2C1O)C(=O)c1cccc(O)c1C3=O (stereo not drawn) (tested in a mixture with another compound) , target or system OVCAR-5 ovarian.
Given back: 0.0301

Asked: Please state recorded TGI (tested on OVCAR-5 ovarian) of Clc1nc(Cl)c2ncn(Cc3ccccc3Cn3cnc4c(Cl)nc(Cl)nc43)c2n1
Given back: 10.4

Continuing:
Asked: Request: TGI, test system OVCAR-5 ovarian, entry NCCCOc1cc(Cl)ccc1NC(=O)c1cc2ccccc2cc1OCCCN
Given back: 3.01

----------
System: XF 498 CNS
PROCEDURE_DETAILS: NCI tumour cell line growth inhibition, 48 h
MEASUREMENT_TYPE: TGI

Completed entries (count: 10):
Asked: State the recorded TGI for this entry: Cc1ccc(NC(=O)C(=O)C2C(=O)NC(=O)NC2=O)cc1C
Given back: > 100 µM

Asked: Consider the molecule COc1ccc(C2COc3c(ccc(O)c3C)C2)cc1OC (stereo not drawn) and give its measured TGI.
Given back: 124 µM

Asked: Record request: TGI value, item CCCCCCCCCCCCCCCCCCC1=C(O)C(=O)C=C(OC)C1=O
Given back: > 100 µM

Asked: Request the reported TGI associated with Nc1c(S(=O)(=O)c2ccccc2)c2nc3ccccc3nc2n2c1nc1ccccc12
Given back: > 44.5 µM

Asked: Fill in the blank: the reported TGI of CCOc1ccc(N=Cc2c3ccccc3nc3ccccc23)cc1 is ____.
Given back: > 100 µM

Asked: Look at this molecule and give its reported TGI. Cc1ccc(C)c(N2C(=O)C(=O)C(c3nc4ccccc4o3)/C(=N/N)C2=O)c1 (stereo not drawn)
Given back: > 100 µM

Asked: For NC(=O)c1cn(Cc2ccccc2)c(=O)n1Cc1ccccc1 , what is its reported TGI?
Given back: > 100 µM

Asked: I would be grateful if you could share the reported TGI for COc1cc2c(cc1OC)C1Cc3cc(OC)c(OC)cc3N1CC2 (stereo not drawn) .
Given back: 43.6 µM

Asked: Could you tell me which TGI is on file for COc1cc(/C=C/C(=O)Oc2ccccc2)ccc1C(=O)O/C=C/c1ccccc1 ?
Given back: > 100 µM

Asked: // query TGI value for entry CCCCCCCCCCCC(=O)OC[C@@H](C[As](=O)(O)O)OC(=O)CCCCCCCCCCC
Given back: 29 µM

Give me TGI for each of these molecules, listed below.
1. Cc1ccc2[c](c1)[Sn]([c]1ccccc1)([c]1ccccc1)[c]1cc(C)ccc1N2C
2. O=C1CC2CCN(C(=O)c3ccccc3)CC2CCN1 (stereo not drawn)
3. COc1cc(-c2nnc3n2NC=C(C(=O)O)S3)cc(OC)c1OC

Given back:
1. > 100 µM
2. > 100 µM
3. > 100 µM
